- experiment description: Transfer into each organ: carotenoid concentration in organs of cynomolgus monkeys (Test Example 3)
- Format: in vivo
- test conditions: cynomolgus monkey, in vivo, 50 mg/kg, Concentration in organ: Kidney (left)
endpoint name: concentration at 10 days (ng/g)

>>> test_value("CC1=C(/C=C/C(C)=C/C=C/C(C)=C/C=C/C=C(C)/C=C/C=C(C)/C=C/C2=C(C)C(=O)C(O)CC2(C)C)C(C)(C)CC(O)C1=O (stereo not drawn) [astaxanthin, 3,3′-dihydroxy-β,β-carotene-4,4′-dione]")
228

* * *

- experiment description: Transfer into each organ: carotenoid concentration in organs of cynomolgus monkeys (Test Example 3)
- Type: in vivo
- test conditions: cynomolgus monkey, in vivo, 50 mg/kg, Concentration in organ: Brain, Cerebral medulla
- Experimental: As experimental animals, cynomolgus monkeys were used. […] The dose in each administration was calculated based on the latest body weight at each administration time point (the body weight was measured on the day of initiation of acclimation, the day of end of acclimation, the day of initiation of administration, and before administration on day 8 of administration using an electric balance (HP-40K or GP-40K, both of which are manufactured by A&D Company, Limited)). […]
endpoint name: concentration at 10 days (ng/g)

>>> test_value("CC1=C(/C=C/C(C)=C/C=C/C(C)=C/C=C/C=C(C)/C=C/C=C(C)/C=C/C2=C(C)C(=O)C(O)CC2(C)C)C(C)(C)CC(O)C1=O (stereo not drawn) [astaxanthin, 3,3′-dihydroxy-β,β-carotene-4,4′-dione]")
8.3

* * *

- experiment description: Transfer into each organ: carotenoid concentration in organs of cynomolgus monkeys (Test Example 3)
- Type: in vivo
- test conditions: cynomolgus monkey, in vivo, 50 mg/kg, Concentration in organ: Liver
- Experimental: As experimental animals, cynomolgus monkeys were used. […] The dose in each administration was calculated based on the latest body weight at each administration time point (the body weight was measured on the day of initiation of acclimation, the day of end of acclimation, the day of initiation of administration, and before administration on day 8 of administration using an electric balance (HP-40K or GP-40K, both of which are manufactured by A&D Company, Limited)). […]
endpoint name: concentration at 10 days (ng/g)

>>> test_value("CC1=C(/C=C/C(C)=C/C=C/C(C)=C/C=C/C=C(C)/C=C/C=C(C)/C=C/C2=C(C)C(=O)C(O)CC2(C)C)C(C)(C)CC(O)C1=O (stereo not drawn) [astaxanthin, 3,3′-dihydroxy-β,β-carotene-4,4′-dione]")
37.8

* * *

- experiment description: Transfer into each organ: carotenoid concentration in organs of cynomolgus monkeys (Test Example 3)
- Type: in vivo
- test conditions: cynomolgus monkey, brain, midbrain, oral, 50 mg/kg, 50 mg/kg intragastric once daily for 10 days, after last administration, read-out: Concentration in organ: Brain, Midbrain
endpoint name: concentration at 10 days (ng/g)

>>> test_value("CC1=C(/C=C/C(C)=C/C=C/C(C)=C/C=C/C=C(C)/C=C/C=C(C)/C=C/C2=C(C)C(=O)C(O)CC2(C)C)C(C)(C)CC(O)C1 (stereo not drawn) [adonixanthin, 3,3′-dihydroxy-β,β-caroten-4-one]")
7.4

* * *

- experiment description: Transfer into each organ: carotenoid concentration in organs of cynomolgus monkeys (Test Example 3)
- Format: in vivo
- test conditions: cynomolgus monkey, in vivo, 50 mg/kg, Concentration in organ: Brain, Diencephalon
endpoint name: concentration at 10 days (ng/g)

>>> test_value("CC1=C(/C=C/C(C)=C/C=C/C(C)=C/C=C/C=C(C)/C=C/C=C(C)/C=C/C2=C(C)C(=O)C(O)CC2(C)C)C(C)(C)CC(O)C1=O (stereo not drawn) [astaxanthin, 3,3′-dihydroxy-β,β-carotene-4,4′-dione]")
5.2
